- Study System: T1, rat GALR2 (rat)
- T1 chain: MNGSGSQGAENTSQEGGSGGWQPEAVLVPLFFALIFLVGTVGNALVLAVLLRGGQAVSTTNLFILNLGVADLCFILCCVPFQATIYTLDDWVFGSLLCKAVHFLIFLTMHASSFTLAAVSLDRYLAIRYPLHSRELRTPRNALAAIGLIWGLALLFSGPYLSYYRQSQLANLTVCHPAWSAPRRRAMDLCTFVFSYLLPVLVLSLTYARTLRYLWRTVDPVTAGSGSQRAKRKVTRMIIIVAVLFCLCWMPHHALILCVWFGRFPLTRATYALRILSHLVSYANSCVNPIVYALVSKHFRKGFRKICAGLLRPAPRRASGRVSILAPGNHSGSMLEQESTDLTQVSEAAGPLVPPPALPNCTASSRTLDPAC
- Test: competition, radioligand CHO
pKi: −log10 of the molar value.
Consider the following binders and their measured pKi readings.

Some binders with known pKi results, for comparison:
[[record]]
binder = "MPRGCALLL [porcine galanin 1-9]"
assay_result = "< 6.00"

[[record]]
binder = "ALSATLGLGSPVK [porcine galanin 17-29]"
assay_result = "< 6.00"

[[record]]
binder = "LASLLLASALSATLGLGSPVK [porcine galanin 9-29]"
assay_result = "< 6.00"


Consider now this further binder.
-- ask Request the reported pKi associated with human galanin (protein) KRGWTLNSAGYLLGPHAVGNHRSFSDKNGLTSKRELRPEDDMKPGSFDRSIPENNIMRTIIEFLSFLHLKEAGALDRLLDLPAAASSEDIERS
-- reply 8.92
